Where do these numbers come from? They come from PubChem BioAssay (NCI).

Experiment: NCI Yeast Anticancer Drug Screen. Data for the mec2-1 strain (AID 157)
Conditions: S. cerevisiae mec2-1 strain, at 50.0 µM, stronger effect = higher value
The panel holds about 79,000 compounds, 15% with a hit somewhere; the sample as a whole holds those more often.
Tick condition met if growth inhibition is 80% or greater. Tick condition not met if growth inhibition is less than 80%.

compound: COC(=O)c1cccc2c1C(=O)c1ccccc1-2
category: condition not met

compound: Clc1ccc(C(CCc2ccc(Br)cc2)Cn2ccnc2)c(Cl)c1 (configuration not stated)
category: condition met

compound: CN(C)CC/[N+]([O-])=C(/c1ccccc1)C12CC3CC(CC(C3)C1)C2
category: condition not met

compound: COC1=CC2=CCC3C(CCC4(C)C(C(C)=O)CCC34)C2(C)CC1 (configuration not stated)
category: condition not met

compound: Cc1nn(C(=S)S)c(C)c1N=Nc1cccc(F)c1
category: condition not met

compound: CC1=C/C(=C(/c2ccc(O)c(C)c2)c2ccccc2C(=O)O)C=CC1=O
category: condition met

compound: BrCc1ccc([Si](c2ccccc2)(c2ccccc2)c2ccc(CBr)cc2)cc1
category: condition not met

compound: COc1ccc2c(c1)CCc1c(CO)c(COC(=O)NC(C)C)n(C)c1-2
category: condition met

compound: COc1ccc(CCN2C(=O)C(=O)N(C3CCCCC3)C2=O)cc1OC
category: condition not met

compound: C/C(=N\N(C)C(=S)Nc1ccccc1)c1ccccn1
category: condition not met

compound: O=C(Nc1ccc(Cl)cc1)OCCOCCOC(=O)Nc1ccc(Cl)cc1
category: condition met

compound: CCCC/C=C(/CCCNCCCC)[Si](C)(C)C
category: condition met

compound: O=C(CCc1ccccc1)COC(=O)c1ccc([N+](=O)[O-])cc1
category: condition not met

compound: CCN(C(=O)c1ccccc1C)C(c1ccccc1)P(=O)(c1ccccc1)c1ccccc1 (configuration not stated)
category: condition met

compound: SCCCCCCCCCCS
category: condition met

compound: O=C(/C=C\c1cccc2ccccc12)c1ccccn1
category: condition met

compound: CNC(=O)OCc1c(COC(=O)NC)c2n(c1C)-c1ccccc1CCC2
category: condition met

compound: CCCCCCCCCCCCCCCCCCOC(=O)C(N)Cc1ccccc1 (configuration not stated)
category: condition not met

compound: CC(C)(C)CC(=O)O
category: condition not met

compound: Cc1ccc(Nc2nc3nc[nH]c3c(=O)[nH]2)cc1CO
category: condition not met

compound: COc1ccc(I)c(C=NC2CCCCC2)c1C
category: condition met

compound: Cc1cc([N+](=O)[O-])c2nnnn2c1
category: condition not met

compound: CSC(SC)C(SC)SC
category: condition not met

compound: Oc1cccnc1CN1CCCCC1
category: condition not met

compound: Nc1ncnc2nc(SCCO)[nH]c12
category: condition not met

compound: CN(C)c1ccc(/C=C/c2nc3ccccc3[nH]2)cc1
category: condition not met

compound: C/C(=N\N=C(N)N)c1ccc2c(c1)Cc1cc(/C(C)=N/N=C(N)N)ccc1-2
category: condition met

compound: O=C1c2cccc(NCCNCCO)c2C(=O)c2cccc(NCCNCCO)c21
category: condition not met

compound: Cc1c(O)ccc2c1OCC(c1ccc(Cl)cc1)C2 (configuration not stated)
category: condition not met

compound: CCC1CN2CCc3cc(OC)c(OC)cc3C2CC1CC1c2cc(OC)c(OC)cc2CCN1C(=O)C(Cc1c[nH]c2ccccc12)NC(=O)OC(C)(C)C (configuration not stated)
category: condition met

compound: CCCCC(O)(c1ccccc1)C(O)(c1ccccc1)c1c(F)c(F)c(F)c(F)c1F (configuration not stated)
category: condition met

compound: O=C1c2ccccc2SCC12OC2c1ccc(Cl)cc1 (configuration not stated)
category: condition met

compound: C(=N\N=C\c1ccc2c(c1)OCO2)/c1ccc2c(c1)OCO2
category: condition not met

compound: O=C(Cc1csc2[n+]1C(=O)/C(=C/c1cccc([N+](=O)[O-])c1)S2)Nc1ccccc1
category: condition not met

compound: CC(C)c1cc(=O)c2cc3[nH]c4ccccc4c3cc2[nH]1
category: condition not met

compound: CC(C)=CC(=O)OC(CCCc1ccccc1)c1ccc2c(c1)OCO2 (configuration not stated)
category: condition not met

compound: O=Nc1c(O)c2ccccc2c2ccc([N+](=O)[O-])cc12
category: condition met

compound: CC(CCl)OC(=O)Nc1cccc(C(F)(F)F)c1 (configuration not stated)
category: condition not met

compound: CC(C)(C)c1cc(C(O)(C(F)(F)F)C(F)(F)F)c(Cl)c(C(O)(C(F)(F)F)C(F)(F)F)c1
category: condition met

compound: Cc1cc([N+](=O)[O-])cc(C)[n+]1[O-]
category: condition not met

compound: O=C(/C=C/C(=O)N1CCCC1)N1CCCC1
category: condition not met

compound: O=C(NCCc1c(-c2ccccc2)[nH]c2ccccc12)C(F)(F)C(F)(F)F
category: condition met

compound: CC1N(O)C(c2ccccc2)C(c2ccccc2)=[N+]1[O-] (configuration not stated)
category: condition not met
